Sequence of the target: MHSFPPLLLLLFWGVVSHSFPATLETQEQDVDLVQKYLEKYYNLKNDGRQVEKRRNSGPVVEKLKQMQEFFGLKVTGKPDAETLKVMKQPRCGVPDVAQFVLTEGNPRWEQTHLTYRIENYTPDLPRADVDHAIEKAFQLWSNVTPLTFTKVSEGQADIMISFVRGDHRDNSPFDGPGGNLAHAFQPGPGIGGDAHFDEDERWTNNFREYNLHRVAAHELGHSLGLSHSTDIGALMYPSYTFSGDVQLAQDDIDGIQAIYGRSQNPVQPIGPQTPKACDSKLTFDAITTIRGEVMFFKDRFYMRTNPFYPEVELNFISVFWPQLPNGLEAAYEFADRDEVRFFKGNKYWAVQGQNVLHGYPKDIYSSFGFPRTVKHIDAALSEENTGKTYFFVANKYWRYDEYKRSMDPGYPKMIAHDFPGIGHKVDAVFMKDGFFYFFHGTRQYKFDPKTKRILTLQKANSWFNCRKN
Here is a set of molecules with reported Ki for the protein given by its sequence, compiled from the literature.

// solved cases for Ki follow
[[record]]
molecule = "C[C@H](C(=O)NO)N1CCNc2cc(OCc3ccccc3)ccc2S1(=O)=O"
measured_parameter = "Ki"
value = "> 4.95 µM"

[[record]]
molecule = "NC(=O)C(Cc1c[nH]c2ccccc12)NC(=O)C(CCCc1ccccc1)CP(=O)(O)C(Cc1ccccc1)NC(=O)OCc1ccccc1 (stereo not drawn)"
measured_parameter = "Ki"
value = "> 2 µM"


// switching to the query molecule
For record Cc1cc(COc2ccc(N3CC[C@H]([C@H](NC(=O)C(C)(C)C)C(=O)NO)C3=O)cc2)c2ccccc2n1 the listed Ki is > 5 µM
